Reference source: patent US9133207B2

System: PANC-1 (pancreatic cancer)
Experiment: Solid tumor cell growth inhibition, MTT, 72 h (Example 7)
Assay type: cell-based, human
Conditions: Homo sapiens; 72 h, MTT, PANC-1
METRIC NAME: IC90 (µg/mL)

In [3]: df
Out[3]:
                                smiles_code  qualifier_sign  measured_result
0  COc1ccc2cc1Oc1ccc(cc1)C[C@H]1c3cc(c(OC)cc3CCN1C)Oc1c(OC)c(OC)c(CN3CCCN(C)CC3)c3c1[C@H](C2)N(C)CC3               =             4.58
1  COc1ccc2cc1Oc1ccc(cc1)C[C@H]1c3cc(c(OC)cc3CCN1C)Oc1c(OC)c(OC)c(CN3CCC(C#N)CC3)c3c1[C@H](C2)N(C)CC3               =              7.1
2  COc1ccc2cc1Oc1ccc(cc1)C[C@H]1c3cc(c(OC)cc3CCN1C)Oc1c(OC)c(OC)c(COCc3ccc(F)cc3)c3c1[C@H](C2)N(C)CC3               =              9.9
3  COc1ccc2cc1Oc1ccc(cc1)C[C@H]1c3cc(c(OC)cc3CCN1C)Oc1c(OC)c(OC)c(CN3CCSCC3)c3c1[C@H](C2)N(C)CC3               =             7.15
4  COc1ccc2cc1Oc1ccc(cc1)C[C@H]1c3cc(c(OC)cc3CCN1C)Oc1c(OC)c(OC)c(CN(C)C)c3c1[C@H](C2)N(C)CC3               >               10
5  COc1ccc2cc1Oc1ccc(cc1)C[C@H]1c3cc(c(OC)cc3CCN1C)Oc1c(OC)c(OC)c(CN3CC=CC3)c3c1[C@H](C2)N(C)CC3               >               10
